A collection of compounds and their measured IC50
EXPERIMENTAL TARGET: PLK2 (h) (Homo sapiens, UniProt Q9NYY3)
Sequence (Q9NYY3 whole entry): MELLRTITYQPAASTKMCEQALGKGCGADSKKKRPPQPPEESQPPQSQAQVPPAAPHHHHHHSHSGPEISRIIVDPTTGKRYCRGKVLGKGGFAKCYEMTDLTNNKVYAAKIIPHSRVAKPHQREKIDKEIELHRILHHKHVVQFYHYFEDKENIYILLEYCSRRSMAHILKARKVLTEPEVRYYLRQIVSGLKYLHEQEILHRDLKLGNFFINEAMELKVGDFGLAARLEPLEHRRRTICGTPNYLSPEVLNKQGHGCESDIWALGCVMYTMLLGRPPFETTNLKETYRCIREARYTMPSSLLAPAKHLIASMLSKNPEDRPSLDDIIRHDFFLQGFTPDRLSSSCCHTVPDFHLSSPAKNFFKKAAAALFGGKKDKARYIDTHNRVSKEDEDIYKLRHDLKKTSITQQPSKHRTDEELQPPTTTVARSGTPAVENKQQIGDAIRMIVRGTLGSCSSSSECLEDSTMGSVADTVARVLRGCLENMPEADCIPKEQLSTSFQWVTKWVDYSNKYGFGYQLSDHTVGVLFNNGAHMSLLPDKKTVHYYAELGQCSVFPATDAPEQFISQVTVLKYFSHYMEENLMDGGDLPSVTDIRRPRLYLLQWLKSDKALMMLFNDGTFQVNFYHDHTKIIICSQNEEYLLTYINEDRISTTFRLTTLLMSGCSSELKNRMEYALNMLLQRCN
PROCEDURE TEXT: PLK2 human kinase inhibition, SPA
Format: biochemical
TEST SETTINGS: read-out: PLK2 pIC50 (converted)

Study these solved cases before continuing.
CN1CCCNC(=O)CN2CCN(CC2)Cc2cc(Br)cc(c2)Nc2nccc(n2)-c2ccc(cc2)C1 ... > 10 µM
COc1ccc2cc1CN(C)CCCNC(=O)CN1CCN(CC1)Cc1cc(Br)cc(c1)Nc1nccc-2n1 ... > 10 µM
C[C@H]1NCc2cc(ccc2N2CCOCC2)Nc2nccc(n2)-c2cccc(c2)OCCCNC1=O ... > 10 µM
CN1CCNC(=O)CN2CCN(CC2)Cc2cccc(c2)Nc2nccc(n2)-c2ccc(cc2)C1 ... 2.88 µM
CN1CCN(Cc2cc3cc(c2)Nc2nccc(n2)-c2cccc(c2)CNC(=O)[C@@H]2CCCN2C3)CC1 ... > 10 µM

Exercise: # return IC50 for O=C1NCc2cccc(c2)-c2ccnc(n2)Nc2cc(ccc2Cl)CN[C@H]1Cc1ccccc1 , test system: PLK2 (h) (Homo sapiens, UniProt Q9NYY3)
Key: > 10 µM

Exercise: Look up and report IC50, with PLK2 (h) (Homo sapiens, UniProt Q9NYY3) as system, for O=C1NCc2cccc(c2)-c2ccnc(n2)Nc2ccc(N3CCOCC3)c(c2)CN2CCC[C@@H]12
Key: > 10 µM

====

System: MDA-MB-231
PROCEDURE TEXT: Cellular proliferation assay (Alamar blue), MDA-MB-231
Format: cell-based
TEST SETTINGS: Homo sapiens, 10% FCS, 72 hours with compound, Alamar blue 24 h, read-out: MDA/MB231 (cellular proliferation assay, Table 4) (converted)
Method: […] functional properties of these compounds were tested in cellular proliferation assays on a panel of different cell lines in the presence of 10% FCS serum (37° C. and 5% (v/v) CO2). In a first step these cells were seeded and incubated for 24 hours in the absence of compound. In the second step the cells were incubated for 72 hours with the compounds to be tested for 72 hours. The viable cell number was finally assessed in a standard Alamar blue cell viability assay. […]
Listing of recorded IC50 by entry.

Observe how each entry below is paired with its result.
COc1cc2cc(c1)Nc1nccc(n1)-c1ccc(cc1)CN(C)CCCNC(=O)C1CCN(CC1)C2 ... 8.32 µM
COc1ccc2cc1CNCCCNC(=O)CN1CCN(CC1)Cc1cc(ccc1N1CCOCC1)Nc1nccc-2n1 ... > 10 µM
O=C1CN2CCN(CC2)Cc2cc(ccc2N2CCOCC2)Nc2nccc(n2)-c2ccc(cc2)CNCCN1 ... > 10 µM
CN1CCNC(=O)[C@@H]2CCCN2Cc2cccc(c2)Nc2nccc(n2)-c2ccc(cc2)C1 ... > 10 µM
CC(C)Nc1cc2cc(c1)Nc1nccc(n1)-c1ccc(cc1)CN(C)CCNC(=O)C1CCN(CC1)C2 ... > 10 µM

Exercise: Fill in IC50 for record O=C1NCc2cc(ccc2N2CCOCC2)Nc2nccc(n2)-c2cccc(c2)CN2CCC[C@@H]12
Key: > 10 µM

Exercise: Assign IC50 to the following record: CC(C)Nc1cc2cc(c1)Nc1nccc(n1)-c1ccc(cc1)CN(C)CCNC(=O)[C@@H]1CCCN1C2
Key: > 10 µM

Exercise: Tell us which IC50 value is on record for COc1ccc2cc1CN(C)CCNC(=O)C1CCN(CC1)Cc1cccc(c1)Nc1nccc-2n1
Key: > 10 µM

Exercise: Answer with the recorded IC50 of COc1cc2cc(c1OC)CNC(=O)[C@H](CO)NCc1cccc(c1)-c1ccnc(n1)N2 only.
Key: > 10 µM

Exercise: Please indicate IC50 recorded for CN(C)CCNC(=O)c1ccc2cc1CN1CCC[C@H]1C(=O)NCc1cccc(c1)-c1ccnc(n1)N2
Key: 1.91 µM
